# experimentDescription: HepG2 cell viability effects, profiling panel, calcein-AM fluorescence, 48 h, basal (AID 1164); also: test concentration not given here
# conditions: higher = more signal
Use z-score to assign classes; range list: interval 1 = under -1, interval 2 = from -1 up to 0.3, interval 3 = 0.3 and over

CN(C)C(=O)[C@@]1(CCS(=O)(=O)c2ccccc2)COC(c2ccc(OCCCO)cc2)=N1 | interval 1
CCOC(=O)[C@H]1C/C=C/C[C@H](C(=O)OCC)C(=O)O[C@H]2[C@@H](OC)O[C@H](CO)[C@@H](OC(=O)c3c(OC)cccc3OC)[C@@H]2OC1=O | interval 1
CC(C)C(=C=CC[C@H](O)c1ccc(OCCO)cc1)CCO | interval 2
COc1ccc([Si](C)(C)[C@H]2[C@H](CCO)O[C@@]3(C(=O)N(Cc4ccc(N(C=O)c5ccccc5)cc4)c4ccccc43)[C@@H]2C)cc1 | interval 1
COc1cc2c(cc1OC)CN(C(=O)[C@H]1[C@@H]3C(=O)O[C@@H](c4ccccc4)[C@@H](c4ccccc4)N3[C@@H](c3ccc(O)cc3)[C@]13C(=O)Nc1ccccc13)CC2 | interval 3
O=C1C[C@@](C(=O)NCCN2CCOCC2)(c2ccc([N+](=O)[O-])cc2)[C@@H](c2ccc(CO)cc2)N1CC12CC3CC(CC(C3)C1)C2 | interval 1
C=CC[C@@]1(C(=O)NCCN2CCOCC2)N=C(c2ccc(OCCCO)cc2)O[C@@H]1c1ccccc1N=[N+]=[N-] | interval 3
O=C1C2C=CC(C(O)c3cccc4ccccc34)N(Nc3ccccc3F)C2C(=O)N1c1ccccc1 (stereo not given) | interval 2
CCOC(=O)C[C@H]1[C@H](OC(=O)c2ccc(C(=O)c3ccccc3)cc2)[C@@H](NC(=O)c2ccccc2)c2cc(OCCCO)ccc2N1C(=O)Cc1ccc(OC)cc1 | interval 3
C=CCC(OC(C)=O)[C@@H]1[C@@H](N(Cc2ccc(-c3ccccc3)cc2)C(=O)Cc2ccc(OC)cc2)c2cc(OCCCO)ccc2N1C(=O)Cc1ccc2ccccc2c1 (stereo not given in full) | interval 3
CCC[C@@H]1C[C@@]1(CCC)[C@@H](NC(=O)c1ccccc1)c1cccc(Cl)c1 | interval 2
O=C(CS)NCCCCCCNC(=O)[C@@H]1C[C@@H]2C(=O)N[C@@H](Cc3ccccc3)C(=O)N2[C@@H]1c1cccc(OCCO)c1 | interval 3
CCCC[C@@H]1C[C@H]1[C@@H](NC(=O)C(C)(C)C)c1ccc(C(F)(F)F)cc1 | interval 1
CN1C(=O)C2C=CC(C(O)c3ccc([N+](=O)[O-])cc3)N(N3CCCCC3)C2C1=O (stereo not given) | interval 2
C=CCN1C(=O)[C@@]2(CC=C)N=C(c3ccc(OCCCO)cc3)O[C@H]2c2ccccc21 | interval 2
